Biological target: T1, AA peptide (Octet assay of PS557 variants)
T1 construct: Peptide coated on the Octet sensor
Assay: Octet (BLI), peptide on sensor, response after 200 s association
// label = yes (1) if Octet response is not less than 4 nm, otherwise no (0)

| BINDER | CLASS_NAME |
| --- | --- |
| PS962 (designed binder, Variant of PS557) MPTAASATESAIEDTPAPARPEVDGRTKPKRQPRYHVVLWDDDDHTYQYVVVMLRSLFGHPYARGYRLAKEMDTQGRVIVLTTTREHAELKRDQIHAFGRDRLLARSKGSMKASIEAEE | no (0) |

INPUT: Record PS557 (other, Natural ClpS parent protein; also called WT; wild-type protein) MPTAASATESAIEDTPAPARPEVDGRTKPKRQPRYHVVLWNDDDHTYQYVVVMLQSLFGHPPERGYRLAKEVDTQGRVIVLTTTREHAELKRDQIHAFGYDRLLARSKGSMKASIEAEE ; criterion: Octet response no lower than 4 nm. Met?
OUTPUT: no (0)

INPUT: Repeat for the following binder: PS960 (designed binder, Variant of PS557) MPTAASATESAIEDTPAPARPEVDGRTKPKRQPRYHVVLWDDDDHTYQYVVVMLRSLFGIPPERGYRLAKEMDTQGRVIVLTTTREHAELKRDQIHAFGYDRLLARSKGSMKASIEAEE
OUTPUT: no (0)

INPUT: Repeat for the following binder: PS961 (designed binder, Variant of PS557; also called N41D, V72M, Q55R, E63S, L68M, Y100R) MPTAASATESAIEDTPAPARPEVDGRTKPKRQPRYHVVLWDDDDHTYQYVVVMLRSLFGHPPSRGYRMAKEMDTQGRVIVLTTTREHAELKRDQIHAFGRDRLLARSKGSMKASIEAEE
OUTPUT: yes (1)
